Test system: YAP/TAZ-TEAD transcription
Test: Reporter gene assay for measuring the inhibition of YAP/TAZ-TEAD transcription (TEAD-responsive element luciferase reporter in Hek293T cells)
Type: cell-based
Details: Homo sapiens, HEK-293T; Hek293T cells transfected with TEAD-responsive luciferase reporter, 24 hours incubation
Assay readout: EC50

1) CNC(=O)Cc1cn2cc(Nc3ccccc3)cc(-c3ccn(C)n3)c2n1 :: > 20000 nM
2) CCC(=O)NCc1nn(-c2ccc(C(F)(F)F)cc2)c2ccccc12 :: 1000 to 20000 nM
3) CCC(=O)NCc1nn(-c2ccc(C(F)(F)F)cc2)c2cc(OC3CC3)ccc12 :: > 20000 nM
4) CS(=O)(=O)NCc1nn(-c2ccc(C(F)(F)F)cc2)c2ccc(OCC3CC3)cc12 :: < 1000 nM
5) CS(=O)(=O)NCc1nn(-c2ccc(OC(F)(F)F)cc2)c2ccccc12 :: 1000 to 20000 nM
6) O=S(=O)(NCc1nn(-c2ccc(C(F)(F)F)cc2)c2ccccc12)C1CC1 :: 1000 to 20000 nM
7) CC(=O)Nc1cn(-c2ccc(C(F)(F)F)cc2)c2ccccc12 :: < 1000 nM
8) C=CC(=O)Nc1cn(-c2ccc(Cl)cc2)c2ccccc12 :: < 1000 nM

Okay, now this compound:
Annotate the compound `N#CCS(=O)(=O)NCc1nn(-c2ccc(C(F)(F)F)cc2)c2ccccc12` with its measured EC50.
1000 to 20000 nM

====

# reported EC50; entries follow
Tested on: NCI-H2052
Test: Mesothelioma cell line proliferation assay (ATPlite), NCI-H2052
Type: cell-based
Conditions: Homo sapiens, 144 h; NCI-H2052 cells, 6 days with compound, cell viability by ATPlite
Protocol: Mesothelioma cell lines, NCI-H226 and NCI-H2052 (all sourced from the ATCC cell culture collection) are plated in 96-well plates (Corning® 96 Well White Polystyrene Microplate clear flat bottom, white polystyrene (TC-Treated)), at 1500 cells/well in full medium (RPMI 1640 ATCC modification with L-glutamine, HEPES, Phenol Red, Sodium Pyruvate, High glucose, Low sodium bicarbonate and 10% fetal bovine serum). Cells are incubated overnight at 37° C. in an incubator with 5% CO2. […]

1. C=CC(=O)NCc1nn(-c2ccc(C(F)(F)F)cc2)c2ccc(OCC3CC3)cc12 [compound 66] :: < 1000 nM
2. C=CC(=O)NCc1nn(-c2ccc(C(F)(F)F)cc2)c2ccc(Oc3ccccc3)cc12 [compound 49] :: < 1000 nM
3. C=CC(=O)NCc1nn(-c2ccc(C(F)(F)F)cc2)c2ncccc12 [compound 19] :: < 1000 nM
4. C=CC(=O)NCc1nn(-c2ccc(C(F)(F)F)cc2)c2cnccc12 [compound 59] :: < 1000 nM
5. C=CC(=O)NCc1cn(-c2ccc(C(F)(F)F)cc2)c2ccccc12 [compound 27] :: 1000 to 10000 nM

Name the recorded EC50 of CS(=O)(=O)NCc1nn(-c2ccc(C(F)(F)F)cc2)c2ccccc12 [compound 3] , assay system NCI-H2052.
> 10000 nM

Name the recorded EC50 of C=CC(=O)NCc1nn(-c2ccc(C(F)(F)F)cc2)c2ccccc12 [compound 1] , assay system NCI-H2052.
< 1000 nM

Name the recorded EC50 of C=CC(=O)NCc1nn(-c2ccc(C(F)(F)F)cc2)c2ccc(OCc3cc[nH]n3)cc12 [compound 58] , assay system NCI-H2052.
< 1000 nM

Name the recorded EC50 of C=CC(=O)NCc1nn(-c2ccc(C(F)(F)F)cc2)c2ccc(OCc3ccccc3)cc12 [compound 54] , assay system NCI-H2052.
< 1000 nM

Name the recorded EC50 of C=CC(=O)NCc1nn(-c2ccc(C(F)(F)F)cc2)c2ccc(OCC#N)cc12 [Cpd. No. 43] , assay system NCI-H2052.
< 1000 nM

Name the recorded EC50 of C=CC(=O)NCc1nn(-c2ccc(C(F)(F)F)cc2)c2ccc(C(F)(F)F)cc12 [compound 71] , assay system NCI-H2052.
< 1000 nM

Name the recorded EC50 of C=CC(=O)NCc1nn(-c2ccc(C(F)(F)F)cc2)c2cc(OC3CC3)ccc12 [compound 50] , assay system NCI-H2052.
< 1000 nM

Name the recorded EC50 of C=CC(=O)NCc1cc2ccccc2n1-c1ccc(C(F)(F)F)cc1 [compound 29] , assay system NCI-H2052.
< 1000 nM

Name the recorded EC50 of C=CC(=O)NCc1nn(-c2ccc(C(F)(F)F)cc2)c2ccc(OC[C@@H]3CCOC3)cc12 (single isomer, unassigned) [compound 48] , assay system NCI-H2052.
< 1000 nM

Name the recorded EC50 of C=CC(=O)NCc1nn(C2CCC(F)(F)CC2)c2ccccc12 [compound 77] , assay system NCI-H2052.
< 1000 nM

Name the recorded EC50 of CC(=O)Nc1cn(-c2ccc(C(F)(F)F)cc2)c2ccccc12 [compound 21] , assay system NCI-H2052.
1000 to 10000 nM

Name the recorded EC50 of C=CC(=O)NCc1cc2ccccc2n1Cc1ccc(C(F)(F)F)cc1 [compound 31] , assay system NCI-H2052.
1000 to 10000 nM

====

System: YAP/TAZ-TEAD transcription
Test: Reporter gene assay for measuring the inhibition of YAP/TAZ-TEAD transcription (TEAD-responsive element luciferase reporter in Hek293T cells)
Format: cell-based
Conditions: Homo sapiens, HEK-293T; Hek293T cells transfected with TEAD-responsive luciferase reporter, 24 hours incubation
Assay readout: EC50

Worked cases, answers included:
1. CS(=O)(=O)NCc1nn(-c2ccc(C(F)(F)F)cc2)c2ccc(C(F)(F)F)cc12 :: 1000 to 20000 nM
2. C=CC(=O)NCc1nn(-c2ccc(C(F)(F)F)cc2)c2ccc(OCc3ccccc3)cc12 :: < 1000 nM
3. Cn1ccc(-c2cc(-c3ccccc3)cn3cc(CC(=O)O)nc23)n1 :: > 20000 nM

Annotate the compound C=CC(=O)NCc1nn(-c2ccc(C(F)(F)F)cc2)c2ccc(OC[C@H]3CCOC3)cc12 (single isomer, unassigned) with its measured EC50.
< 1000 nM

Annotate the compound `CS(=O)(=O)NCc1nn(-c2ccc(C(F)(F)F)cc2)c2ccccc12` with its measured EC50.
< 1000 nM

Annotate the compound `C=CC(=O)NCc1nn(-c2ccc(C(F)(F)F)cc2)c2ccc(Oc3ccccc3)cc12` with its measured EC50.
< 1000 nM

Annotate the compound `CCC(=O)NCc1nn(-c2ccc(C(F)(F)F)cc2)c2ccc(Oc3cc(=O)[nH]c(=O)n3C)cc12` with its measured EC50.
> 20000 nM

Annotate the compound `C=CC(=O)NCc1nn(-c2ccc(C(F)(F)F)cc2)c2ccncc12` with its measured EC50.
< 1000 nM

====

# reported EC50; entries follow
Tested on: YAP/TAZ-TEAD transcription
Assay: Reporter gene assay for measuring the inhibition of YAP/TAZ-TEAD transcription (TEAD-responsive element luciferase reporter in Hek293T cells)
Assay type: cell-based
Conditions: Homo sapiens, HEK-293T; Hek293T cells transfected with TEAD-responsive luciferase reporter, 24 hours incubation

Worked cases, answers included:
1) O=C1NCCN1Cc1nn(-c2ccc(C(F)(F)F)cc2)c2ccccc12 :: < 1000 nM
2) CCC(=O)NCc1cn(-c2ccc(C(F)(F)F)cc2)c2ccccc12 :: 1000 to 20000 nM
3) C=CC(=O)NCc1nn(-c2ccc(C(F)(F)F)cc2)c2ncccc12 :: < 1000 nM

Annotate the molecule `C=CC(=O)NCc1cc2ccccc2n1-c1ccc(C(F)(F)F)cc1` with its measured EC50.
< 1000 nM

Annotate the molecule `CCC(=O)NCc1nn(-c2ccc(C(F)(F)F)cc2)c2ccc(OCc3ccccc3)cc12` with its measured EC50.
> 20000 nM

====

Tested on: YAP/TAZ-TEAD transcription
Test: Reporter gene assay for measuring the inhibition of YAP/TAZ-TEAD transcription (TEAD-responsive element luciferase reporter in Hek293T cells)
Assay type: cell-based
Details: Homo sapiens, HEK-293T; Hek293T cells transfected with TEAD-responsive luciferase reporter, 24 hours incubation
pEC50: −log10 of the molar value.
# reported pEC50; entries follow

1) C=CC(=O)NCc1nn(-c2ccc(C(F)(F)F)cc2)c2cccnc12 [compound 40] :: > 6.00
2) CC(=O)NCc1nn(-c2ccc(C(F)(F)F)cc2)c2cc(C(F)(F)F)ccc12 [compound 75] :: < 4.70
3) C=CC(=O)NCc1nn(-c2ccc(C(F)(F)F)cc2)c2cc(C(F)(F)F)ccc12 [compound 74] :: > 6.00
4) O=C1OCCN1Cc1nn(-c2ccc(C(F)(F)F)cc2)c2ccccc12 [compound 18] :: > 6.00
5) C#CCOc1ccc2c(c1)c(CNC(=O)CC)nn2-c1ccc(C(F)(F)F)cc1 [compound 64] :: < 4.70
6) CNC(=O)c1nn(-c2ccc(C(F)(F)F)cc2)c2ccccc12 [compound 8] :: < 4.70
7) CC(=O)NC1C(=O)N(c2ccc(C(F)(F)F)cc2)c2ccccc21 (stereo not shown) [compound 34] :: < 4.70
8) C=CC(=O)NCc1nn(-c2ccc(C(F)(F)F)cc2)c2ccc(OC[C@@H]3CCOC3)cc12 (single isomer, unassigned) [compound 48] :: > 6.00
9) C=CC(=O)NCc1nn(-c2ccc(OC(F)(F)F)cc2)c2ccccc12 [Cpd. No. 4] :: > 6.00
10) CCC(=O)NCc1nn(-c2ccc(C(F)(F)F)cc2)c2ccc(OCC3CC3)cc12 [compound 67] :: < 4.70

Annotate the molecule CS(=N)(=O)NCc1nn(-c2ccc(C(F)(F)F)cc2)c2ccccc12 (stereo not shown) [compound 16] with its measured pEC50.
4.70 to 6.00

Annotate the molecule CS(=O)(=O)NC(=O)c1nn(-c2ccc(C(F)(F)F)cc2)c2ccccc12 [compound 12] with its measured pEC50.
4.70 to 6.00

Annotate the molecule C=CC(=O)Nc1cn(-c2ccc(C(F)(F)F)cc2)c2ccccc12 [compound 20] with its measured pEC50.
> 6.00
